- System: LPS-induced TNF-α release
- PROTOCOL_DETAILS: inhibition of LPS-induced TNF-α release from THP1 cells (TNF-α by ELISA)
- Type: cell-based
- CONDITION_SUMMARY: Homo sapiens, THP-1, LPS 2 mg/ml, 0.5 hour preincubation with compound, 3 hours at 37° C. with LPS, read-out: IC50 (concentration of test compound which brings about 50% inhibition of LPS-induced TNF-α release)
Consider the following compounds; for each one, report its pIC50.
Reminder that pIC50 means the negative base-10 logarithm of the concentration expressed in mol/L.

Reported pIC50 (LPS-induced TNF-α release) for entry "CC(C)C[C@@H](C(=O)NN1C(=O)[C@H](C(C)C)NC1=S)[C@H](CCCc1ccccc1)C(=O)NO" is 6.22

Reported pIC50 (LPS-induced TNF-α release) for entry "CC(C)C[C@@H](C(=O)NN1C(=O)CNC1=O)[C@H](Cc1ccc(-c2ccccc2)cc1)C(=O)NO" is 6.51

Note to self: pIC50 of "CC(C)C[C@@H](C(=O)Nn1c(=O)[nH]c2ccsc2c1=O)[C@H](CCCc1ccccc1)C(=O)NO" with LPS-induced TNF-α release was 6.76

The observed pIC50 for "CC(C)C[C@@H](C(=O)NN1C(=O)CNCC1=O)[C@H](CCCc1ccccc1)C(=O)NO" when tested with LPS-induced TNF-α release stands at 5.84

Item "CC(C)C[C@@H](C(=O)NN1C(=O)N[C@@H](CO)C1=O)[C@H](C/C=C/c1ccccc1)C(=O)NO" was tested on LPS-induced TNF-α release; the reported pIC50 is 6.52

LPS-induced TNF-α release assay, compound "CC[C@H](C)[C@@H]1NC(=O)N(NC(=O)[C@H](CC(C)C)[C@H](C/C=C/c2ccccc2)C(=O)NO)C1=O" , recorded pIC50 = 6.79

GET /values?item= "CC(=O)N1CCC2(CC1)NC(=O)N(NC(=O)[C@H](CC(C)C)[C@H](CCCc1ccccc1)C(=O)NO)C2=O" &system= LPS-induced TNF-α release returns pIC50: 6.32

Recorded pIC50 for "CC(C)C[C@@H](C(=O)NN1C(=O)N[C@@H](CO)C1=O)[C@H](CCCc1ccccc1)C(=O)NO" on LPS-induced TNF-α release was 6.41

The measured pIC50 that "CC(C)C[C@@H](C(=O)NN1C(=O)N[C@@H](C(C)C)C1=O)[C@H](CCCc1ccccc1)C(=O)NO" showed for LPS-induced TNF-α release is 6.81

The recorded pIC50 with LPS-induced TNF-α release for "CC(C)C[C@@H](C(=O)NN1C(=O)NC2(CCN(C(=O)OCc3ccccc3)CC2)C1=O)[C@H](CCCc1ccccc1)C(=O)NO" was 6.21

Field pIC50 (LPS-induced TNF-α release), entry "CSCC[C@@H]1NC(=O)N(NC(=O)[C@H](CC(C)C)[C@H](CCCc2ccccc2)C(=O)NO)C1=O" : 6.63

LPS-induced TNF-α release data for "CC(C)C[C@@H](C(=O)NN1C(=O)CNC1=O)[C@H](CCCC1CCCCC1)C(=O)NO" ; its pIC50: 6.62

Entry "CC(C)C[C@@H](C(=O)NN1C(=O)CNC1=O)[C@H](C/C=C/c1ccccc1)C(=O)NO" , LPS-induced TNF-α release data, pIC50 value: 6.55

Measured on LPS-induced TNF-α release, "CC(C)C[C@@H](C(=O)Nn1c(=O)[nH]c2cscc2c1=O)[C@H](CCCc1ccccc1)C(=O)NO" has a documented pIC50 of 6.75

Considering "CC(C)C[C@@H](C(=O)NN1C(=O)CCNC1=O)[C@H](C/C=C/c1ccccc1)C(=O)NO" , its pIC50 with LPS-induced TNF-α release was recorded as 6.42

// compound "CC(C)C[C@@H](C(=O)NN1C(=O)CNC1=O)[C@H](CCCc1ccccc1)C(=O)NO" , assay LPS-induced TNF-α release, pIC50 value: 6.63

The reported pIC50 value, LPS-induced TNF-α release, for "CC(C)C[C@@H](C(=O)NN1C(=O)NCCS1(=O)=O)[C@H](C/C=C/c1ccccc1)C(=O)NO" reads 6.41

Given the compound "COC[C@@H]1NC(=O)N(NC(=O)[C@H](CC(C)C)[C@H](CCCc2ccccc2)C(=O)NO)C1=O" and test system LPS-induced TNF-α release, the measured pIC50 is 6.46

The compound "CC[C@H](C)[C@@H]1NC(=O)N(NC(=O)[C@H](CC(C)C)[C@H](CCCc2ccccc2)C(=O)NO)C1=O" on LPS-induced TNF-α release: pIC50 was 6.83
